# Subject Of Test: cyclooxygenase-1 (COX-1) (Homo sapiens)
# Construct: human recombinant COX-1 stably overexpressed in HEK-293 cells
# Sequence (P23219 24-599): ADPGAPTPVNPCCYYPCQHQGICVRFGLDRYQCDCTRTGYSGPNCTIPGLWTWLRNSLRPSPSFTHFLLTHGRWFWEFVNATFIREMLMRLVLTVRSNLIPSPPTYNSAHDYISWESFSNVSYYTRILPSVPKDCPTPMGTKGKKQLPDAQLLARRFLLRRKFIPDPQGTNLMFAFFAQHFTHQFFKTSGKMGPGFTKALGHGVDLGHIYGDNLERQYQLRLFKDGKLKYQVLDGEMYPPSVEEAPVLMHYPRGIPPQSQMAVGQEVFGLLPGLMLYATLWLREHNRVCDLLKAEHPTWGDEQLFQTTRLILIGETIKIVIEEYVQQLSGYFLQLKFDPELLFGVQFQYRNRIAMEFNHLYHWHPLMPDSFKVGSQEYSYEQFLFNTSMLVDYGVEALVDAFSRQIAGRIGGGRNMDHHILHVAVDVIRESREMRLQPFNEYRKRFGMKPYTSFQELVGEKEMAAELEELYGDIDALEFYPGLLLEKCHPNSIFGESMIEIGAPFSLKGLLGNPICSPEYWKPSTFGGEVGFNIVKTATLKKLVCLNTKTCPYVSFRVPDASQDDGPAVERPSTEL
# Assay Explanation: PGE2 production from added arachidonic acid in HEK-293 cells overexpressing human COX-1
Quantity Kind: IC50

Problem: Recorded IC50 of Cc1cc(C(=O)O)c(C(F)(F)c2cccc(C(C)C)c2)cc1C , please.
Solution: 5.2 µM
